System: MS2 coat protein
Assay: apparent KD of MS2 coat protein; designed switch direction (-1 OFF switch, 1 ON switch): -1; higher = weaker reporter binding
Details: Eterna round: R95; input ligand: microRNA oligo, concentration not stated
Exercise: for every item that follows, state its recorded apparent KD of MS2 coat protein.
Give bare numbers, in nM.

Here's what some known entries look like.
sequenceText: CAGUACUACAAGCUUGGGAACAUGAGGAUCACCCAUGUUCGUCUUAUUGAUCUAGGUACGCUGACGUACCUAGAUCU [JL-sv1-2.17 Brourd mod] (puzzle: Sensor v3, turn-off variant 1)
assayEndpoint: apparent KD of MS2 coat protein
unitTag: nM
recordedMeasurement: 27.1
//
sequenceText: AUCAUGUAAGGAUAUCUUACAUGUAUCGAAAGAUACAGUUAAGAGAAGGUACAUGAGGAUCACCCAUGUAUAAC [Ex4-3: 35] (puzzle: Exclusion 4)
assayEndpoint: apparent KD of MS2 coat protein
unitTag: nM
recordedMeasurement: 25.2
//
sequenceText: GACCAGGCAGGAUAUACAUGAGGAUCACCCAUGUGUCUGCGUUGGGCACGUGAACACGGUAGAAGGGCCUUGAC [ChP 13.04.2015 #15] (puzzle: Exclusion 3)
assayEndpoint: apparent KD of MS2 coat protein
unitTag: nM
recordedMeasurement: 12.8
//
sequenceText: CCAUCGAGUGUGAGGAUAUGCUGUUCCUUGGAGCAGCAGAAGGCACAUGAGGAUCACCCAUGUGGAUACGGUGG [Mat - Exclusion 4 - JL Mod - D80] (puzzle: Brourd's mod of Exclusion 4)
assayEndpoint: apparent KD of MS2 coat protein
unitTag: nM
recordedMeasurement: 33.4
//
sequenceText: GCGCAGUCAGGAUAUGCCGGAUAGGAUCACCCUGUCCAAAGGCAGAAGGGACAUGAGGAUCACCCAUGUGGCGC [e4e Mirror Pins] (puzzle: Exclusion 4)
assayEndpoint: apparent KD of MS2 coat protein
unitTag: nM
recordedMeasurement: 17.7

Please go through the list and note apparent KD of MS2 coat protein for each sequence.
1. AGUAACAGAGGAUAUACUAUUUUAUGUGUUUGUUGUUUUAAACAUGAGGAUCACCCAUGUAGAAGGCUGAAUAA [JMF 88] (puzzle: Exclusion 2)
2. UUUUAACAUGAGGAUCACCCAUGUGAGGAUAUCGUAAUUUAUAUUAAUAUUAAUAAAACGAGAAGGCACAUUUU [JMF 5] (puzzle: Exclusion 1)
3. AAUAACAGAGGAUAUACUGUUUUAUGUGUUUGUUAUUUUGAACAUGAGGAUCACCCAUGUAGAAGGCUGAAUAA [JMF 23] (puzzle: Exclusion 2)
4. ACUAGAUGAGGAUAUGCAUGUUUUCGUGUUCUUCUAGAUUAACAUGAGGAUCACCCAUGUAGAAGGCGUCAUAU [Exclusion 2 - 29] (puzzle: Exclusion 2)
5. CGAAGUAGAAACCGAUCCUACAUGAGGAUCACCCAUGUAGCAAGACGUGCACGCGAAGCUCGUCAGACUACCAGAAG [salish99_TOv1_r3_004] (puzzle: Sensor v3, turn-off variant 1)
6. UUUAAUUUUUUUUUUUUACAAGCUUUUUGCUCGUCUUAUACAUGAGGAUCACCCAUGUGGGUAGAAGGUAAAUUAUC [JMF 66] (puzzle: Sensor v3, turn-off variant 2)

[19, 143, 21.3, 45, 352, 64.9]
